meta.source: PubChem BioAssay (NCI)

- TEST DESCRIPTION: NCI Yeast Anticancer Drug Screen. Data for the mlh1 rad18 strain (AID 175)
- CONDITION: S. cerevisiae mlh1 rad18 strain growth inhibition; at 50.0 µM; stronger effect = higher value
About 79,000 compounds went through this panel and 15% of them were active in at least one assay; those are over-represented in the sample as a whole.
Assign Yes whenever growth inhibition does not fall below 60%; assign No whenever it does.

> print(dat)
                                    molecule  label
 1         COc1ccc(OC)c(/C=C2/C(=O)ON=C2C)c1     No
 2                CC(=O)SCC(=O)Nc1ccc(Cl)cc1    Yes
 3          COc1cccc(OC)c1C(=O)/C=C/c1ccccc1    Yes
 4     O=C(NNc1ccccc1)c1ccc([N+](=O)[O-])cc1    Yes
 5  COc1ccc2c(c1)n([O-])c1cc(C#N)ccc1[n+]2=O     No
 6  C/C(=N\NC(=S)Nc1ccc(S(N)(=O)=O)cc1)c1ccccn1    Yes
 7  COc1cccc2c1C(=O)c1c(O)c3c(c(O)c1C2=O)C[C@@](O)(/C(C)=N/NS(C)(=O)=O)C[C@@H]3OC1CC(N)C(O)C(C)O1 (stereo not given in full)    Yes
 8  CCCCCCCCCCCCCCCC(=O)NCC[N+](CC)(CC)Cc1ccc(C[N+](CC)(CC)CCNC(=O)CCCCCCCCCCCCCCC)cc1    Yes
 9  CCOC1=Cc2c(oc3c(C(C)(C)C)cc(OCC)cc23)OC(C(C)(C)C)=C1     No
10  O=c1[nH]c2ccc([N+](=O)[O-])c(Cl)c2c2ccccc12     No
